System: M19-MEL melanoma
Experiment: NCI tumour cell line growth inhibition, 48 h
Reported TGI values are given for each entry in this list.
METRIC: TGI (µM)

{"columns": ["MOLECULE", "METRIC", "RESULT UNIT", "CENSORING OPERATOR", "OBSERVED"],
 "data": [
  ["COc1cc2ccc(CC(N)=O)cc2cc1OC", "TGI", "µM", ">", 100],
  ["COC(=O)C1C(O)C(C)C(O)OC1C(C)C(O)C(C)/C=C\\C=C(/C)C(=O)Nc1c(C)c(OC(C)=O)c2c(c1O)C(=O)C(C)=C1OCOC(/C(C)=C/C(C)=O)=C12 (stereo not given)", "TGI", "µM", "=", 26],
  ["CCCCc1c2c(nc3c1CC/C(=C\\c1ccc([N+](=O)[O-])cc1)C3=O)CCCC2", "TGI", "µM", "=", 4.59],
  ["O=[N+]([O-])c1ccc(COc2cccc3cccnc23)cc1", "TGI", "µM", "=", 38.2],
  ["Cc1cc2c(C(C)C)c(O)c(O)c(C=Nc3ccccc3)c2c(O)c1-c1c(C)cc2c(C(C)C)c(O)c(O)c(C=Nc3ccccc3)c2c1O", "TGI", "µM", ">", 100],
  ["CC12CC(Sc3ccccc3N1)c1ccccc1O2 (stereo not given)", "TGI", "µM", "=", 30.9],
  ["Cc1cc2c(=O)cc(-c3ccc(F)cc3)oc2c(C(=O)O)c1C", "TGI", "µM", ">", 100],
  ["CCN(CC)CCNC(=O)c1nn(-c2ccc(Cl)cc2)c2c1CCc1cc(OC)ccc1-2", "TGI", "µM", "=", 7.11],
  ["Cc1ccc(S(=O)(=O)SCc2ccccc2)cc1", "TGI", "µM", ">", 77.4],
  ["Cc1ccc2c(CC(=O)O)cc(=O)oc2c1", "TGI", "µM", ">", 100]
]}

---

Reported TGI values are given for each entry in this list.
System: CCRF-CEM leukemia
Test: NCI tumour cell line growth inhibition, 48 h
METRIC: TGI

{"columns": ["COMPOUND", "TARGET ENTITY", "OBSERVED"],
 "data": [
  ["Cc1nc2cccc([N+](=O)[O-])c2n1CCCN(C)C", "CCRF-CEM leukemia", "> 100 µM"],
  ["O=C(Nc1cccc(-n2cc(-c3ccncc3)c(-c3ccc(O)c(Cl)c3)n2)c1)c1ccc(Cl)c(Cl)c1", "CCRF-CEM leukemia", "> 100 µM"],
  ["COc1cc2c(cc1O)C(c1cc(O)c(O)c(OC)c1)C(O)(C(=O)O)C(CO)C2O (stereo unspecified)", "CCRF-CEM leukemia", "22.7 µM"],
  ["CCN1C(=O)N(CC)C2C1NN=c1s/c(=C\\c3cccc([N+](=O)[O-])c3)c(=O)n12 (stereo unspecified)", "CCRF-CEM leukemia", "> 100 µM"],
  ["CC(C)(C)OC(=O)NCCCCCCCCCCn1c2c(c3ccccc3c1=O)C(=O)c1ccccc1-2", "CCRF-CEM leukemia", "> 100 µM"],
  ["CCCC#CCOC(=O)c1cc([N+](=O)[O-])cc([N+](=O)[O-])c1", "CCRF-CEM leukemia", "> 100 µM"],
  ["COC[C@@H](N=CN1CCc2cc(OC)c(OC)cc2C1)C(C)(C)C", "CCRF-CEM leukemia", "> 100 µM"],
  ["Cc1cc(=O)c2ccccc2n1CCCCCCCCCCn1c(C)cc(=O)c2ccccc21", "CCRF-CEM leukemia", "26.7 µM"],
  ["COc1ccc(N(C(=O)NCCO)c2ccccc2)cc1", "CCRF-CEM leukemia", "> 100 µM"],
  ["COc1ccc(-c2nc(-c3nc4ccc(C(F)(F)F)cc4[nH]3)c3ccccn23)cc1", "CCRF-CEM leukemia", "> 100 µM"],
  ["Nc1ccc(OCCCc2c(-c3ccccc3)nc(N)[nH]c2=O)cc1", "CCRF-CEM leukemia", "> 100 µM"],
  ["Cc1ccc(C(=O)N=Nc2c(O)[nH]c3ccc(Cl)cc23)cc1", "CCRF-CEM leukemia", "> 50 µM"],
  ["C[C@]12CCc3sc(-c4cccc(F)c4)nc3C1=CC[C@@H]1[C@@H]2CC[C@]2(C)C(=O)CC[C@@H]12", "CCRF-CEM leukemia", "9.58 µM"],
  ["Cc1cc2c(=O)[nH]c(N)nc2nc1C", "CCRF-CEM leukemia", "> 100 µM"],
  ["Brc1ccc(-c2cc(-c3ccc4c(c3)OCO4)c(-c3cccs3)n2Cc2ccccc2)cc1", "CCRF-CEM leukemia", "> 100 µM"],
  ["CCOP(=O)(CC(=O)C1=C(O)C(CCCCNC(=O)OC(C)(C)C)N(Cc2ccccc2)C1=O)OCC (stereo unspecified)", "CCRF-CEM leukemia", "> 100 µM"]
]}

The measured values listed here are drawn from PubChem BioAssay (NCI).
